- assay-info: Solubility (phosphate-buffered saline, pH =7.4)
- Format: physicochemical
- applied-conditions: read-out: S
Record form. Attribute: solubility. Fill in for each entry.
One number for each entry, in µM.

The molecule identified as CC(C)(C)[C@H](NC(=O)OCc1ccccc1)C(=O)N[C@@H](Cc1ccccc1)[C@@H](O)[C@@H](NCc1ccc(OCCN2CCOCC2)cc1)C(=O)N[C@H]1c2ccccc2C[C@H]1O registered its solubility at 14.5

More entries:
The molecule identified as COc1ccc(CN[C@@H](C(=O)NC2c3ccccc3C[C@H]2O)[C@H](O)[C@H](Cc2ccccc2)NC(=O)[C@@H](NC(=O)CSc2nncn2C)C(C)(C)C)cc1 (some centres undefined) registered its solubility at 260
